Entry source: patent US9440933B2

# Tested on: wheat
# protocol notes: Damage to wheat (growth inhibition) by seed treatment (pot test)
# cond: 2 mg in DMSO applied to wheat seeds 1 g, 14 to 28 days after seeding, larger index = smaller damage
property: Damage index Growth inhibition

compound	tested on	observed measurement
COC(=O)[C@]1(C)CC[C@H](Cc2ccc(F)cc2)[C@@]1(O)Cn1cncn1 (racemic)	wheat	1 (60% or more and less than 80%)
COC(=O)[C@]1(C)CC[C@@H](Cc2ccc(Cl)cc2)[C@]1(O)Cn1cncn1 (racemic)	wheat	1 (60% or more and less than 80%)
CCOC(=O)[C@]1(C)CC[C@H](Cc2ccc(Cl)cc2)[C@@]1(O)Cn1cncn1 (racemic)	wheat	4 (1% or more and less than 20%)
C=CCOC(=O)[C@]1(C)CC[C@H](Cc2ccc(Cl)cc2)[C@@]1(O)Cn1cncn1 (racemic)	wheat	3 (20% or more and less than 40%)

// recorded Damage index Growth inhibition for CCCOC(=O)[C@]1(C)CC[C@H](Cc2ccc(Cl)cc2)[C@@]1(O)Cn1cncn1 (racemic) : 4 (1% or more and less than 20%)
